Biological target: GlcNAc(a1-4)Gal(b1-3)GlcNAc
Assay: glycan array binding signal (z-score within array); higher = stronger binding
Details: glycan notation: IUPAC condensed, linker removed
The full list was thinned out, with the strongest signals kept by preference.
ASSAY_READOUT: glycan array binding signal (z-score)
Answer as a number with no unit attached.

Some solved cases for reference:
* CrataBL (Crataeva tapia), C0HJA4 (protein) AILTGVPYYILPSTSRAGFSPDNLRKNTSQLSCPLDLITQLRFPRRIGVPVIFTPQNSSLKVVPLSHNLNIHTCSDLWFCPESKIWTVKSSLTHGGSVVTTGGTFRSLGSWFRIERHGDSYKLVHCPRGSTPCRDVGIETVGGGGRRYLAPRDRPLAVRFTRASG | -0.374
* MAA (Maackia amurensis), P0DKL3 (protein) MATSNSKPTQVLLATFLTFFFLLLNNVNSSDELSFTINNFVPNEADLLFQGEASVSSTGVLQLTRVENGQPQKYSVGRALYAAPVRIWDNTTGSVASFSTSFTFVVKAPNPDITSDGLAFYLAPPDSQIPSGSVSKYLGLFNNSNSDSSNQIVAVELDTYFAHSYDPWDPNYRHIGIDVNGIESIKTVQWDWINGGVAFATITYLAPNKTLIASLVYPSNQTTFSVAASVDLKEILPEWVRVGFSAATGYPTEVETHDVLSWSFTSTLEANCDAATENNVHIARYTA | -0.226

Okay, next one:
Look up glycan array binding signal (z-score) of OVGAL11 (Ovis aries), AAF64320 (protein) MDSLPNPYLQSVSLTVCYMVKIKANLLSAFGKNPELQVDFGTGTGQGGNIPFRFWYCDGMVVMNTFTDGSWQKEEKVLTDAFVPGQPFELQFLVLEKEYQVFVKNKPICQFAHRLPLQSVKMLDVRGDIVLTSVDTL and report it.
-0.114
